Tested on: SF-539 CNS
assay: NCI tumour cell line growth inhibition, 48 h; in the data active means GI50 below about 0.43 µM; inactive means the rest
Pick one and only one: active, inactive

compound	label
COc1cc(C2c3[nH]c4ccccc4c3C[C@H]3COC(=O)N23)cc(OC)c1OC (some centres undefined)	active
NCCNc1c2c(c(NCCN)c3c(CO)c[nH]c13)C(=O)c1ccccc1C2=O	inactive
CCS(=O)(=O)N1CCC(C(C)n2c(C)c(C(=O)NCc3c(OC)cc(C)[nH]c3=O)c3ccccc32)CC1 (centres undefined)	inactive

Query: Assay result, entry C/C(=N\NC(=O)c1sc(=S)n(C)c1N)c1cc2ccccc2o1 — outcome?
Result: inactive

Query: Now try Cn1cc(-c2ccc3c(Nc4cccc(NC(=O)Nc5cccc(F)c5)c4)ncnc3c2)cn1 .
Result: active

Query: Now try O=C(NC1CCN(Cc2ccccc2)CC1)c1cc(-c2ccncc2)nc2ccc(Cl)cc12 .
Result: inactive

----------
Please go through the items and note down their TGI.
Test system: HCT-15 colon
assay: NCI tumour cell line growth inhibition, 48 h

Use these answered entries as a reference point.
molecule	target or system	TGI
COC(=O)CCc1cc(OC)c(O)c(C(Cc2ccc(OC)c(OC)c2)C(=O)OC)c1 (configuration not stated)	HCT-15 colon	> 100 µM
CCOc1ccccc1NC(=O)CC1C(=O)Nc2ccccc2S1=O (configuration not stated)	HCT-15 colon	> 100 µM
CCCCON(OC(=O)c1ccccc1)C(=O)c1ccccc1	HCT-15 colon	> 100 µM
CCCCCCCC1C(C)c2c([nH]c3ccccc23)C2C(=O)N(c3ccc(OC)cc3)C(=O)C21 (configuration not stated)	HCT-15 colon	> 10 µM
O=C(Nc1ccc(Cl)c(Cl)c1)c1cccc(NC2=C(Cl)C(=O)N(Cc3ccccc3)C2=O)c1	HCT-15 colon	> 100 µM
CC[C@]1(O)CC(OC2CC(N(C)C)C(O)C(C)O2)c2c(cc3c(c2O)C(=O)c2c(O)cccc2C3=O)[C@@H]1C(=O)OC (some centres not stated)	HCT-15 colon	2.75 µM
CC(C)(C)OC1=C(OC(C)(C)C)C(O)(c2ccccc2)C1=O (configuration not stated)	HCT-15 colon	> 100 µM
COc1cc2c[n+](C)c3c4cc(OC)c(OC)cc4c(OC)cc3c2cc1OC	HCT-15 colon	> 100 µM

Below is a list of molecules. For each, state its recorded TGI.
1. CC(=O)OC12/C(=N/O)CCCCCC1c1ccccc12 (configuration not stated)
2. NC(=O)NNCc1ccccc1
3. O=C(O)c1cc2ccccc2c(N=Nc2ccccc2)c1O
4. O=C1/C(=C/c2ccccc2)CCCC1CN1CCCCC1 (configuration not stated)
5. C=C(CN(C)C)C(=O)c1ccccc1C
6. F
7. CCS(=O)(=O)N1CCC(C(C)n2c(C)c(C(=O)NCc3c(OC)cc(C)[nH]c3=O)c3ccccc32)CC1 (configuration not stated)

Result:
> 100 µM
> 100 µM
> 100 µM
4.85 µM
> 63.1 µM
> 6870 µM
> 100 µM

----------
Please go through the items and note down their TGI.
Tested on: BT-549 breast
assay: NCI tumour cell line growth inhibition, 48 h

compound	TGI
NC(Cc1ccc(S(=O)(=O)O)cc1)C(=O)NC(CCCCNC(=O)NCCCCC(NC(=O)C(N)Cc1ccc(S(=O)(=O)O)cc1)C(=O)NC(Cc1ccc(S(=O)(=O)O)cc1)C(=O)O)C(=O)NC(Cc1ccc(S(=O)(=O)O)cc1)C(=O)O (stereo not drawn)	> 100 µM
CC(=O)ON(C(C)=O)c1ccc(-c2nc3ccccc3s2)cc1	> 100 µM

We next turn to a different compound, shown below.
Query: # input compound: COc1cc(C2SCC(=O)N2c2cc(Cl)c(Cl)cc2Cl)cc(OC)c1OC (stereo not drawn) ; wanted: its TGI
Result: 64.7 µM
